- targetUnderTest: rat neurokinin 1 receptor (Rattus norvegicus, UniProt P14600)
- Construct: from tissue; host or cells: rat brain (membrane preparation / homogenate)
- Sequence (P14600 whole entry): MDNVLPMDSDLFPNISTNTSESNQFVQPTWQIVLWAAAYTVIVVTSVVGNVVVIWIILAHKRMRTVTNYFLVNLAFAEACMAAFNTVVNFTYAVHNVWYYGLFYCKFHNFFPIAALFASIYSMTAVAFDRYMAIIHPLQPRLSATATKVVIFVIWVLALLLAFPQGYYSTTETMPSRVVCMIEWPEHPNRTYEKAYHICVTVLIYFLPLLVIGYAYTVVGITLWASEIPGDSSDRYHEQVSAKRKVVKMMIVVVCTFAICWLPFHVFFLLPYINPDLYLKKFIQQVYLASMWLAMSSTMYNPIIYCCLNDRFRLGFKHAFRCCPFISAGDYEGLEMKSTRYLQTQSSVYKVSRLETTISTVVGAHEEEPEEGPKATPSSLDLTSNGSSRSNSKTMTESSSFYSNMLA
- testMethodNotes: Competitive radioligand binding assay using rat brain homogenates, [3H]-[Sar9,Met(O2)11]-Substance P
- testContext: IC50, rat brain homogenates
- From the text: An important consideration in the search of conjugate vectors for radionuclides is whether the functionalization of a high affinity ligand would not reduce the binding strength for a desired receptor. For the preliminary addressing of this issue in the case of our conjugates, we measured the affinity of compounds 5A–E (uncomplexed precursors) for the rat neurokinin-1 receptor. The human (hNK1R) and the rat (rNK1R) neurokinin 1 receptors differ in their sequences and pharmacology. […]
measurementType: pIC50
Note on pIC50: it is the negative log10 of concentration, concentration in mol/L.

For record C[C@@H](O[C@H]1OCCN(Cc2n[nH]c(=O)[nH]2)[C@H]1c1ccc(F)cc1)c1cc(C(F)(F)F)cc(C(F)(F)F)c1 [Aprepitant, aprepitant] the listed pIC50 is 6.89

---

- targetUnderTest: rat neurokinin 1 receptor (Rattus norvegicus, UniProt P14600)
- Construct: from tissue; host or cells: rat brain (membrane preparation / homogenate)
- testMethodNotes: Competitive radioligand binding assay using rat brain homogenates, [3H]-[Sar9,Met(O2)11]-Substance P
- testContext: IC50 ± SEM, uncomplexed precursors, rat brain homogenates, three independent experiments in duplicate
measurementType: pIC50
Note on pIC50: it is the negative log10 of concentration, concentration in mol/L.

For record C[C@@H](O[C@H]1OCCN(Cc2n[nH]c(=O)[nH]2)[C@H]1c1ccc(F)cc1)c1cc(C(F)(F)F)cc(C(F)(F)F)c1 [Aprepitant, aprepitant] the listed pIC50 is 6.89

Source: paper PMC7466001
